// provenance: the Deep4Chem optical property database

Collected photoluminescence quantum yield values appear next to each entry.
Test: photoluminescence quantum yield (fraction); solvent given as SMILES
Details: in ClCCl

{"columns": ["Compound", "photoluminescence quantum yield"],
 "data": [
  ["COCCOCCOCCOCC(COCCOCCOCCOC)Oc1cc(/C=C/c2ccc(C=C(C#N)C#N)cc2)c(OC(COCCOCCOCCOC)COCCOCCOCCOC)cc1/C=C/c1ccc(C=C(C#N)C#N)cc1", 0.53],
  ["N#Cc1ccc(-c2cc3c(ccc4sccc43)s2)cc1", 0.22],
  ["CCCCC(CC)COc1cc(OCC(CC)CCCC)c2c#cc3ccc4c(c3)c3cc(c#cc5cc(c#cc6ccc7c(c6)c6cc(c#cc1c2)ccc6n7CC(CC)CCCC)c(C(CCCC)OCCC)cc5C(CCCC)OCCC)ccc3n4CC(CC)CCCC (stereo unspecified)", 0.32],
  ["O=[N+]([O-])c1ccc(O)c(-c2nc3c(c4c2-c2ccccc2CC4)-c2ccccc2CC3)c1", 0.2],
  ["CC[C@H](C)COc1ccc(C2=C3C(C)=CC(C)=[N+]3[B-](F)(F)n3c(C)cc(C)c32)cc1", 0.87],
  ["COC(=O)c1cc(=O)n(C)c2cc(-c3ccc(Oc4ccccc4)cc3)sc12", 0.83],
  ["COc1ccc(N(c2ccc(OC)cc2)c2ccc3ccc4c(B(c5c(C)cc(C)cc5C)c5c(C)cc(C)cc5C)ccc5ccc2c3c54)cc1", 0.21],
  ["COc1ccc(/C=C/c2cc(/C=C/c3ccc(OC)cc3)nc(/C=C/c3ccc4cc(OC)ccc4c3)n2)cc1", 0.11],
  ["COc1ccc2c(c1)-c1cc3c(cc1[Si]2(c1ccccc1)c1ccccc1)-c1ccccc1[Si]3(c1ccccc1)c1ccccc1", 0.4],
  ["Cn1ccc(-c2nc3ccccc3nc2/C=C/N2CCCC2)c1", 0.611],
  ["COc1ccc(-c2cc3c(s2)c(C(C)=O)cc(=O)n3Cc2ccccc2)cc1", 0.99],
  ["F[B-]1(F)n2c(Oc3ccccc3)c(Cl)c(Br)c2C(Oc2ccccc2)=C2C(Br)=C(Cl)C(Oc3ccccc3)=[N+]21", 0.68],
  ["CCCCCCc1ccc(-n2c3[n+](c4c5ccccc5c5ccccc5c42)[B-](C)(C)c2cc(N(c4ccccc4)c4ccccc4)ccc2-3)cc1", 0.88],
  ["O=[N+]([O-])c1ccc(/C2=C3N=C(C(c4ccccc4)=C/3c3ccccc3)/C(c3ccc([N+](=O)[O-])cc3)=c3\\[nH]/c(c(-c4ccccc4)c3-c3ccccc3)=C(/c3ccc([N+](=O)[O-])cc3)C3=N/C(=C(/c4ccc([N+](=O)[O-])cc4)c4[nH]c2c(-c2ccccc2)c4-c2ccccc2)C(c2ccccc2)=C3c2ccccc2)cc1", 0.003],
  ["COc1ccc(-c2c3ccc(=[N+]4CCCCC4)cc-3oc3cc(N4CCCCC4)ccc23)cc1", 0.91],
  ["c1ccc2c(-c3ccc4sc5ccc(-c6c7ccccc7cc7ccccc67)cc5c4c3)c3ccccc3cc2c1", 0.57],
  ["COc1c2ccccc2c(OC)c2c(C#Cc3ccccc3)c3cc4sccc4cc3c(C#Cc3ccccc3)c12", 0.11],
  ["COC(=O)c1cccc2c1C#Cc1c(NC(C)=O)cccc1OCCCO2", 0.33],
  ["CCCCCCCCc1ccc(-c2c3cc(-c4cc(CCCCCCCC)c(-c5ccc(-c6sc(/C=C7\\SC(N8CCCCC8)=NC7=O)cc6CCCCCCCC)s5)s4)sc3c(-c3ccc(CCCCCCCC)s3)c3cc(-c4cc(CCCCCCCC)c(-c5ccc(-c6sc(/C=C7\\SC(N8CCCCC8)=NC7=O)cc6CCCCCCCC)s5)s4)sc23)s1", 0.144],
  ["C(#Cc1cccc2ccccc12)c1ncc(-c2ccccc2)o1", 0.28],
  ["O=P1(c2ccccc2)c2cccc3ccc4ccc1n4c23 (stereo unspecified)", 0.36]
]}
